assay-system: Gal(b1-4)GlcNAc(b1-6)[Gal(b1-4)GlcNAc(b1-3)]GalNAc
procedure-text: glycan array binding signal (z-score within array); higher = stronger binding
experimental-setup: glycan notation: IUPAC condensed, linker removed
Shown is part of a subset that was picked to be rich in the strongest signals.
property: glycan array binding signal (z-score)

binder	glycan array binding signal (z-score)
PFL (Pseudomonas fluorescens) (protein) MSKYAVANQWGGSSAPWHPGGTWVLGARDNQNVVAIEIKSGDGGKSFTGTMTYAGEGPIGFKAQRTGQNQYNVENQWGGNDAPWHPGGKWVIGGRDNQNVIALSVTSSDGGKNLSGTNTYANEGPIGFRGQIE	-0.108

Batch of 2 binders: report glycan array binding signal (z-score) for each.
1. CrataBL (Crataeva tapia), C0HJA4 (protein) AILTGVPYYILPSTSRAGFSPDNLRKNTSQLSCPLDLITQLRFPRRIGVPVIFTPQNSSLKVVPLSHNLNIHTCSDLWFCPESKIWTVKSSLTHGGSVVTTGGTFRSLGSWFRIERHGDSYKLVHCPRGSTPCRDVGIETVGGGGRRYLAPRDRPLAVRFTRASG
2. Actd5 (Actinidia), P84527 (protein) ISSCNGPCRDLNDCDGQLICIKGKCNDDPQVGTHICRGTTHSHQPGGCKPSGTLTCRGKSYPTYDCSPPVTSSTPAKLTNNDFSEGGDDGGPSECDESYHNNNERIVALSTGWYNGGSRCGKMIRITASNGKSVSAKVVDECDSRHGCDKEHAGQPPCRNNIVDGSNAVWSALGLDKNVGVVDITWSMA

Result:
-0.237
-0.2
